system: UniProtKB P0DTD1
stated-conditions: SARS-CoV pIC50 multiplied by similarity index (SI), training set compounds
quantity-kind: SI*pIC50
Output: the number by itself.

Query: # SI*pIC50 lookup, item CC1(C)CC(=O)c2c(NCc3ccco3)sc(C#N)c2C1 [CMP142]
Reply: 4.948

Query: What about CC(C)C1=CC2=CC[C@@H]3[C@](C)(CCC[C@@]3(C)C(=O)O)[C@H]2CC1 [CMP124] ?
Reply: 3.875

Query: What about CC1=C(C(=O)OCCc2ccccc2)C(c2ccccc2[N+](=O)[O-])C2=C(CCCC2=O)N1 (stereo not shown) [CMP102] ?
Reply: 5.754

Query: What about C=C(N[C@@H](CC(C)C)C(=O)N[C@@H](CC1CCNC1=O)C(=O)Cn1[nH]c(=O)c2c([N+](=O)[O-])cccc2c1=O)[C@@H](NC(=O)[C@H](C)NC(=O)O)[C@@H](C)OCc1ccccc1 (stereo partly shown) [CMP101] ?
Reply: 6.374
